- Test system: M14
- assay-overview: NCI tumour cell line growth inhibition, 48 h
Active and inactive are the calls of the source. Cut-off read from the data, not from the text of the source: active = GI50 up to about 1.1 µM and inactive = higher.
assay-readout: GI50

>>> value_observed("COc1ccc(/C=C\\c2cc(OC)c(OC)c(OC)c2)cc1OC(=O)CCC(=O)O")
"< 0.0001 µM (active)"
>>> value_observed("COc1ccc(/N=C(Nc2ccc(OC)cc2)/C(=N/c2ccc(OC)cc2)Nc2ccc(OC)cc2)cc1")
"> 100 µM (inactive)"
>>> value_observed("C=CCOC(OCC=C)/C(Br)=C/C")
"32.1 µM (inactive)"
>>> value_observed("COC1(C)CNCC(C)(C)NC(=O)C(C)(OC)CNCC(C)(C)NC1=O (centres undefined)")
"> 100 µM (inactive)"
>>> value_observed("O=C(CC(=O)c1cccc2ccccc12)C(=O)NC1C2CC3CC(C2)CC1C3 (centres undefined)")
"> 100 µM (inactive)"
>>> value_observed("CC1C(=NO)C(C)C(c2ccccc2)N(N=O)C1c1ccccc1 (centres undefined)")
"16 µM (inactive)"

Each molecule below has a reported value. Please supply its GI50.
1. C[N+]1(C)CCC(C#N)(c2ccccc2)CC1
2. O=C1c2ccccc2C(=O)c2nc(-c3ccccc3)c(-c3ccccc3)nc21
3. CC(=O)/C=C/c1cccc(N=S)c1
4. C=C1C(=O)OC2CC3(CO3)C3C(O)C(O)CC3(C)CC12 (centres undefined)
5. CN(C)CC/C(=N\Nc1ccc(Cl)cc1Cl)c1ccccc1
6. N#Cc1ccc(/C=[N+](/C=c2ccc(=C=[N-])cc2)N(CCO)C2=NCCN2)cc1
7. C/C(=N\Nc1nc2cc(F)ccc2s1)c1ccccn1
8. CCCCCN(CCCCC)C(=O)[C@@H](CCC(=O)OCc1ccccc1)NC(=O)c1cc2ccccc2[nH]1

Reply:
1. > 100 µM (inactive)
2. 5.69 µM (inactive)
3. 6.71 µM (inactive)
4. 16.4 µM (inactive)
5. 15.5 µM (inactive)
6. > 100 µM (inactive)
7. 0.0171 µM (active)
8. > 100 µM (inactive)

###

- Tested on: 786-0
- assay-overview: NCI tumour cell line growth inhibition, 48 h
Activity calls are given as the source filed them. Rule as the data show it: active = GI50 up to about 1.1 µM and inactive = higher.
For each entry below, report its GI50 value.

>>> value_observed("CCOC(=O)C1(C(=O)OCC)OC(=O)NC2=C1CCCC2")
"> 100 µM (inactive)"
>>> value_observed("Clc1cccc(-c2nnc(-c3nn(-c4ccccc4)c4nc5ccccc5nc34)o2)c1")
"> 100 µM (inactive)"
>>> value_observed("CC(/C=N/N(C)C1=NCCCCN1)=N/N(C)C1=NCCCCN1")
"> 100 µM (inactive)"
>>> value_observed("O=C(c1ccccc1)N1C(=S)NC(=N/c2ccccc2)/C1=N\\c1ccccc1")
"> 100 µM (inactive)"
>>> value_observed("CC(=O)Nc1ccc(S(=O)(=O)/N=C2\\C=CC(=O)c3ccccc32)cc1")
"9.25 µM (inactive)"
>>> value_observed("O=C(OCc1ccccc1)N1CCN(C(=O)OCc2ccccc2)CCN(C(=O)OCc2ccccc2)CCN(C(=O)OCc2ccccc2)CCN(C(=O)OCc2ccccc2)CC1")
"16.8 µM (inactive)"

Each molecule below has a reported value. Please supply its GI50.
1. CCN(CC)CCNc1ccc2nnn3c4ccc(OC)cc4c(=O)c1c23
2. BrCC[P+](c1ccccc1)(c1ccccc1)c1ccccc1

Reply:
1. 4.31 µM (inactive)
2. 2.75 µM (inactive)
